Tested on: Staphylococcus aureus
Assay: Minimum inhibitory concentration (MIC) against Staphylococcus aureus by 2-fold microdilution technique.
Type: functional
Conditions: Staphylococcus aureus; read-out: MIC
readoutName: MIC (µg/mL)

# molecule, experimentalValue
rows = [
    ("CC1=C(C(=O)O)N2C(=O)[C@@H](NC(=O)[C@H](N)c3ccccc3)[C@H]2SC1 [CEPHALEXIN ANHYDROUS]", 0.5),
    ("C=CCC1=C(C(=O)O)N2C(=O)[C@@H](NC(=O)[C@H](N)c3ccc(O)cc3)[C@H]2SC1", 0.13),
    ("C/C=C/C1=C(C(=O)O)N2C(=O)[C@@H](NC(=O)[C@H](N)c3ccc(O)cc3)[C@H]2SC1.O (relative stereo; 56) [CEFPROZIL, (E)-]", 0.13),
    ("CC1=C(C(=O)O)N2C(=O)[C@@H](NC(=O)[C@H](N)c3ccc(O)cc3)[C@H]2CO1", 1),
]

====

Reported MIC values for the following compounds.
Tested on: Streptococcus pneumoniae
Assay: Minimum inhibitory concentration (MIC) against Streptococcus pneumoniae by 2-fold microdilution technique
Assay type: functional
Details: Streptococcus pneumoniae; read-out: MIC
readoutName: MIC (µg/mL)

# compound, quantityUnit, experimentalValue
measured = [
    ("C/C=C\\C1=C(C(=O)O)N2C(=O)[C@@H](NC(=O)[C@H](N)c3ccc(O)cc3)[C@H]2CO1 (relative stereo)", "µg/mL", 0.03),
    ("C=CC1=C(C(=O)O)N2C(=O)[C@@H](NC(=O)[C@H](N)c3ccc(O)cc3)[C@H]2SC1", "µg/mL", 0.03),
    ("N[C@@H](C(=O)N[C@@H]1C(=O)N2C(C(=O)O)=C(/C=C/C(F)(F)F)OC[C@H]12)c1ccc(O)cc1", "µg/mL", 0.016),
    ("CC1=C(C(=O)O)N2C(=O)[C@@H](NC(=O)[C@H](N)c3ccc(O)cc3)[C@H]2CO1", "µg/mL", 0.13),
    ("N[C@@H](C(=O)N[C@@H]1C(=O)N2C(C(=O)O)=C(C3CC3)OC[C@H]12)c1ccc(O)cc1", "µg/mL", 0.03),
]
